SYSTEM UNDER TEST: HIV-1 RT Q91N+M184V (Human immunodeficiency virus type 1 group M subtype B, UniProt P03366, M783V/Q690N)
TEST DETAILS: Inhibition of reverse transcription by ddNTP inhibitors, Q91N+M184V mutant
Type: biochemical
RUN CONDITIONS: poly rC-dG18 100 nM, dGTP 10 μM, 37 °C 3 min
MEASURED ENDPOINT: pKi
When answering, recall that pKi equals minus log10 of the concentration in mol/L, and write that number alone.

Q) Returns the measured pKi for the input compound. Input: `Nc1nc2c(ncn2[C@H]2CC[C@@H](COP(=O)(O)OP(=O)(O)OP(=O)(O)O)O2)c(=O)[nH]1`
A) 6.89

###

SYSTEM UNDER TEST: HIV-1 RT Q91A (Human immunodeficiency virus type 1 group M subtype B, UniProt P03366, Q690A)
TEST DETAILS: Inhibition of reverse transcription by ddNTP inhibitors, Q91A mutant
Assay type: biochemical
RUN CONDITIONS: poly rA.dT18 100 nM, dTTP 10 μM, 37 °C 3 min
MEASURED ENDPOINT: Ki (nM)
Answer in nM, number only, no unit symbol.

Q) Look up Ki: Cc1cn([C@H]2CC[C@@H](COP(=O)(O)OP(=O)(O)OP(=O)(O)O)O2)c(=O)[nH]c1=O [ddTTP]
A) 76

###

SYSTEM UNDER TEST: HIV-1 RT Q91N+M184V (Human immunodeficiency virus type 1 group M subtype B, UniProt P03366, M783V/Q690N)
TEST DETAILS: Inhibition of reverse transcription by ddNTP inhibitors, Q91N+M184V mutant
Format: biochemical
RUN CONDITIONS: poly rC-dG18 100 nM, dGTP 10 μM, IC50=Ki(1+[S]/Km)
MEASURED ENDPOINT: pIC50
// returns pIC50 (minus log10 of molar concentration), number only

Q) Returns the measured pIC50 for the input molecule. Input: Nc1nc2c(ncn2[C@H]2CC[C@@H](COP(=O)(O)OP(=O)(O)OP(=O)(O)O)O2)c(=O)[nH]1 [ddGTP]
A) 6.55

###

SYSTEM UNDER TEST: UniProt:P03366
TEST DETAILS: Inhibition of reverse transcription by ddNTP inhibitors, wild-type enzyme
Assay type: biochemical
RUN CONDITIONS: WT; poly rC-dG18 100 nM, dGTP 10 μM, 37 °C 3 min
MEASURED ENDPOINT: Ki (nM)
State the answer as a number, implicitly in nM.

Q) Given the entry Nc1nc2c(ncn2[C@H]2CC[C@@H](COP(=O)(O)OP(=O)(O)OP(=O)(O)O)O2)c(=O)[nH]1 [ddGTP] , report its measured Ki.
A) 112

###

SYSTEM UNDER TEST: HIV-1 RT Q91N (Human immunodeficiency virus type 1 group M subtype B, UniProt P03366, Q690N)
TEST DETAILS: Inhibition of reverse transcription by ddNTP inhibitors, Q91N mutant
Format: biochemical
RUN CONDITIONS: poly rC-dG18 100 nM, dGTP 10 μM, 37 °C 3 min
MEASURED ENDPOINT: pKi
Answer as the number alone; pKi is minus log10 of concentration in mol/L.

Q) Fill in the blank: the reported pKi of `Nc1nc2c(ncn2[C@H]2CC[C@@H](COP(=O)(O)OP(=O)(O)OP(=O)(O)O)O2)c(=O)[nH]1` is ____.
A) 6.32

###

SYSTEM UNDER TEST: HIV-1 RT Q91A+M184V (Human immunodeficiency virus type 1 group M subtype B, UniProt P03366, M783V/Q690A)
TEST DETAILS: Inhibition of reverse transcription by ddNTP inhibitors, Q91A+M184V mutant
Format: biochemical
RUN CONDITIONS: poly rC-dG18 100 nM, dGTP 10 μM, IC50=Ki(1+[S]/Km)
MEASURED ENDPOINT: pIC50
// field semantics: pIC50 = negative decimal log of concentration (mol/L)

Q) Quick one: pIC50 of Nc1nc2c(ncn2[C@H]2CC[C@@H](COP(=O)(O)OP(=O)(O)OP(=O)(O)O)O2)c(=O)[nH]1 [ddGTP] ?
A) 6.31

###

SYSTEM UNDER TEST: HIV-1 RT M184V (Human immunodeficiency virus type 1 group M subtype B, UniProt P03366, M783V)
TEST DETAILS: Inhibition of reverse transcription by ddNTP inhibitors, M184V mutant
Format: biochemical
RUN CONDITIONS: poly rC-dG18 100 nM, dGTP 10 μM, 37 °C 3 min
MEASURED ENDPOINT: Ki (nM)
State the answer as a number, implicitly in nM.

Q) # query: Ki of entry Nc1nc2c(ncn2[C@H]2CC[C@@H](COP(=O)(O)OP(=O)(O)OP(=O)(O)O)O2)c(=O)[nH]1 [ddGTP]
A) 403

###

SYSTEM UNDER TEST: HIV-1 RT Q91A (Human immunodeficiency virus type 1 group M subtype B, UniProt P03366, Q690A)
TEST DETAILS: Inhibition of reverse transcription by ddNTP inhibitors, Q91A mutant
Type: biochemical
RUN CONDITIONS: poly rC-dG18 100 nM, dGTP 10 μM, IC50=Ki(1+[S]/Km)
MEASURED ENDPOINT: IC50 (nM)
Answer in nM, number only, no unit symbol.

Q) Using the record for `Nc1nc2c(ncn2[C@H]2CC[C@@H](COP(=O)(O)OP(=O)(O)OP(=O)(O)O)O2)c(=O)[nH]1` , report its IC50.
A) 1240

###

SYSTEM UNDER TEST: HIV-1 RT Q91A (Human immunodeficiency virus type 1 group M subtype B, UniProt P03366, Q690A)
TEST DETAILS: Inhibition of reverse transcription by ddNTP inhibitors, Q91A mutant
Assay type: biochemical
RUN CONDITIONS: poly rC-dG18 100 nM, dGTP 10 μM, 37 °C 3 min
MEASURED ENDPOINT: Ki (nM)
API: value field is a number in nM; no unit string.

Q) // query Ki value for entry `Nc1nc2c(ncn2[C@H]2CC[C@@H](COP(=O)(O)OP(=O)(O)OP(=O)(O)O)O2)c(=O)[nH]1`
A) 885

###

SYSTEM UNDER TEST: wild type HIV-1 RT (Human immunodeficiency virus type 1 group M subtype B, UniProt P03366)
TEST DETAILS: Inhibition of reverse transcription by ddNTP inhibitors, wild-type enzyme
Assay type: biochemical
RUN CONDITIONS: WT; poly rC-dG18 100 nM, dGTP 10 μM; IC50=Ki(1+[S]/Km)
MEASURED ENDPOINT: pIC50
Keep in mind that pIC50 stands for -log10 of concentration in molar terms.

Q) Quick one: pIC50 of `Nc1nc2c(ncn2[C@H]2CC[C@@H](COP(=O)(O)OP(=O)(O)OP(=O)(O)O)O2)c(=O)[nH]1` ?
A) 6.51

###

SYSTEM UNDER TEST: HIV-1 RT Q91A (Human immunodeficiency virus type 1 group M subtype B, UniProt P03366, Q690A)
TEST DETAILS: Inhibition of reverse transcription by ddNTP inhibitors, Q91A mutant
Assay type: biochemical
RUN CONDITIONS: poly rA.dT18 100 nM, dTTP 10 μM, IC50=Ki(1+[S]/Km)
MEASURED ENDPOINT: IC50

Q) May I ask what IC50 has been recorded for Cc1cn([C@H]2CC[C@@H](COP(=O)(O)OP(=O)(O)OP(=O)(O)O)O2)c(=O)[nH]c1=O [ddTTP] ?
A) 101 nM
